- tested_target: Histamine H2 receptor (Homo sapiens, UniProt P25021); note: assay procedure not described here
- Sequence (P25021 whole entry): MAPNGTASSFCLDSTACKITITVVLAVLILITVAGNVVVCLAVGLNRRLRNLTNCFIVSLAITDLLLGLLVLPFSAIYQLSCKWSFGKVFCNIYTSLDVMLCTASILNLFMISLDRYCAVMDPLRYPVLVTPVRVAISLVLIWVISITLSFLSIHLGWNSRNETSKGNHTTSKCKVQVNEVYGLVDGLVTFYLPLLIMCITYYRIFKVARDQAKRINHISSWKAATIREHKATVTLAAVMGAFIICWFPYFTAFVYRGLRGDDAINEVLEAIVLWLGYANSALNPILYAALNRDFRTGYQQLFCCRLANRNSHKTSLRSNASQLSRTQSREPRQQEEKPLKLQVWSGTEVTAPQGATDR
- Assay type: functional, cell-based
property_measured: AC50

# example entries with known answers
molecule	AC50
CC(=O)OCC(=O)[C@@]12OC3(CCCC3)O[C@@H]1C[C@H]1[C@@H]3CCC4=CC(=O)C=C[C@]4(C)[C@@]3(F)[C@@H](O)C[C@@]12C [AMCINONIDE]	> 10 µM
Cc1c(Cl)cccc1Nc1ccccc1C(=O)O [TOLFENAMIC ACID]	> 30 µM
C[C@H]1O[C@H](O[C@H]2[C@H](O)[C@@H](O)[C@@H](O[C@H]3[C@H](O)[C@@H](O)C(O)O[C@@H]3CO)O[C@@H]2CO)[C@H](O)[C@@H](O)[C@@H]1N[C@H]1C=C(CO)[C@@H](O)[C@H](O)[C@H]1O (stereo partly drawn) [ACARBOSE]	> 10 µM
NC1=NC(=O)C(c2ccccc2)O1 (stereo not drawn) [PEMOLINE]	> 10 µM
CN1C(=O)CC(c2ccccc2)C1=O (stereo not drawn) [PHENSUXIMIDE]	> 10 µM
CC[C@H](C)C(=O)O[C@H]1C[C@H](O)C=C2C=C[C@H](C)[C@H](CC[C@@H](O)C[C@@H](O)CC(=O)O)[C@H]21 [PRAVASTATIN]	> 10 µM
CCOC(=O)[C@H](CCc1ccccc1)N[C@@H](C)C(=O)N1CCC[C@H]1C(=O)O	> 10 µM
C1=Cc2cccc(OCC3CNCCO3)c2C1 (stereo not drawn) [INDELOXAZINE]	> 30 µM

AC50 measured on CCCCCCCCOc1ccccc1C(=O)Nc1ccc(C(=O)OCC[N+](C)(CC)CC)cc1 [OTILONIUM BROMIDE] = > 30 µM

Form field AC50, entry O=C(Nc1ccccc1)OCC(CN1CCCCC1)OC(=O)Nc1ccccc1 (stereo not drawn) [DIPERODON] : > 10 µM

Value of measured AC50 for the entry O=C1CCC(N2C(=O)c3ccccc3C2=O)C(=O)N1 (stereo not drawn) [THALIDOMIDE] : > 10 µM

Lookup result for NC(N)=Nc1nc(CSCCC(N)=NS(N)(=O)=O)cs1 [FAMOTIDINE] ; measured AC50: > 10 µM

Entry CCOC(=O)[C@H](CCc1ccccc1)N[C@H]1CCCN2CCC[C@@H](C(=O)O)N2C1=O [CILAZAPRIL] — recorded AC50 = > 30 µM

---

Reported values of AC50 for individual entries
- tested_target: Alpha-1A adrenergic receptor (Homo sapiens); note: assay procedure not described here
- Sequence (P35348 whole entry): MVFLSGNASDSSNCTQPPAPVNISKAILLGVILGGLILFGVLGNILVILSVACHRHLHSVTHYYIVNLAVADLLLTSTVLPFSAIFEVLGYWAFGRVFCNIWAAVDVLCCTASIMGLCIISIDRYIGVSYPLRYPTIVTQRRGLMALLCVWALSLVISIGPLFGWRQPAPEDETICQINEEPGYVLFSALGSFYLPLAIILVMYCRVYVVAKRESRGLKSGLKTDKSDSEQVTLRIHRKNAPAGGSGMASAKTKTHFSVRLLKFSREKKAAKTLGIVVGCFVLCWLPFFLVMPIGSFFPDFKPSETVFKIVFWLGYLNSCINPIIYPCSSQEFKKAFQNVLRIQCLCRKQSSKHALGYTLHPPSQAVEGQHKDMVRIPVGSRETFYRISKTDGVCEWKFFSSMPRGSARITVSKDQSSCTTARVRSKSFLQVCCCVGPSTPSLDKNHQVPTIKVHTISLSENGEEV
- Format: functional, cell-based

molecule	tested_target	property_measured	measurement
CCCS(=O)(=O)Nc1ccc(F)c(C(=O)c2c[nH]c3ncc(-c4ccc(Cl)cc4)cc23)c1F [VEMURAFENIB]	Alpha-1A adrenergic receptor (Homo sapiens)	AC50	> 30 µM
CCc1nn(CCCN2CCN(c3cccc(Cl)c3)CC2)c(=O)n1CCOc1ccccc1 [NEFAZODONE]	Alpha-1A adrenergic receptor (Homo sapiens)	AC50	2.2 µM
CCCCOc1cc(C(=O)NCCN(CC)CC)c2ccccc2n1 [DIBUCAINE]	Alpha-1A adrenergic receptor (Homo sapiens)	AC50	> 30 µM

Briefly, AC50 measured for N[C@@H](CSCC(=O)O)C(=O)O [CARBOCYSTEINE] : > 30 µM

Sure, the documented AC50 for CC(C)NNC(=O)c1ccncc1 [IPRONIAZID] is > 30 µM
